The measured values listed here are drawn from ChEMBL document CHEMBL1133987.

# Study target: Histone deacetylase
# Protocol description: Inhibitory activity against histone deacetylase (HDAC) derived from partially purified extracts of human HeLa cells
# label = Satisfied if IC50 < 100 nM else Not satisfied

## Input I'd appreciate it if you could check whether CC[C@H](C)[C@@H]1NC(=O)[C@H](Cc2cn(OC)c3ccccc23)NC(=O)[C@H](CCCCCC(=O)C(C)C)NC(=O)[C@H]2CCCCN2CC1=O has IC50 smaller than 100 nM.
## Output Not satisfied

## Input I'd appreciate it if you could check whether CC[C@H](C)[C@@H]1NC(=O)[C@H](Cc2cn(OC)c3ccccc23)NC(=O)[C@H](CCCCC(=O)O)NC(=O)[C@H]2CCCCN2CC1=O has IC50 smaller than 100 nM.
## Output Not satisfied

## Input I'd appreciate it if you could check whether CCC(=O)C(F)CCCC[C@@H]1NC(=O)[C@H]2CCCCN2CC(=O)[C@H]([C@@H](C)CC)NC(=O)[C@H](Cc2cn(OC)c3ccccc23)NC1=O (stereo not given in full) has IC50 smaller than 100 nM.
## Output Not satisfied

## Input I'd appreciate it if you could check whether CC[C@H](C)[C@@H]1NC(=O)[C@H](Cc2cn(OC)c3ccccc23)NC(=O)[C@H](CCCCCC=O)NC(=O)[C@H]2CCCCN2CC1=O has IC50 smaller than 100 nM.
## Output Satisfied

## Input I'd appreciate it if you could check whether CC[C@H](C)[C@@H]1NC(=O)[C@H](Cc2cn(OC)c3ccccc23)NC(=O)[C@H](CCCCCC(=O)O)NC(=O)[C@H]2CCCCN2CC1=O has IC50 smaller than 100 nM.
## Output Satisfied

====

# Study target: Histone deacetylase
# Protocol description: Inhibitory activity against histone deacetylase (HDAC) derived from partially purified extracts of human HeLa cells
Value kind: log10(IC50) (log10 of the value in nM)
Response schema: value (number) is log10 of IC50 in units of nM.

## Input Determine from records and report log10(IC50) for CCCC(=O)CCCCC[C@@H]1NC(=O)[C@H]2CCCCN2CC(=O)[C@H]([C@@H](C)CC)NC(=O)[C@H](Cc2cn(OC)c3ccccc23)NC1=O
## Output 0.00

## Input Determine from records and report log10(IC50) for CC[C@H](C)[C@@H]1NC(=O)[C@H](Cc2cn(OC)c3ccccc23)NC(=O)[C@H](CCCCCC(=O)C(C)F)NC(=O)[C@H]2CCCCN2CC1=O (stereo partly specified)
## Output 0.00

## Input Determine from records and report log10(IC50) for CCC(N)CCCCC[C@@H]1NC(=O)[C@H]2CCCCN2CC(=O)[C@H]([C@@H](C)CC)NC(=O)[C@H](Cc2cn(OC)c3ccccc23)NC1=O (stereo partly specified)
## Output 2.16

## Input Determine from records and report log10(IC50) for CCC(=O)C(O)CCCC[C@@H]1NC(=O)[C@H]2CCCCN2CC(=O)[C@H]([C@@H](C)CC)NC(=O)[C@H](Cc2cn(OC)c3ccccc23)NC1=O (stereo partly specified)
## Output 1.59

## Input Determine from records and report log10(IC50) for CC[C@H](C)[C@@H]1NC(=O)[C@H](Cc2cn(OC)c3ccccc23)NC(=O)[C@H](CCCCCP(=O)([O-])O)NC(=O)[C@H]2CCCCN2CC1=O.[K+]
## Output 2.26

## Input Determine from records and report log10(IC50) for CC[C@H](C)[C@@H]1NC(=O)[C@H](Cc2cn(OC)c3ccccc23)NC(=O)[C@H](CCCCCC2(CC)CO2)NC(=O)[C@H]2CCCCN2CC1=O (stereo partly specified)
## Output 1.78

## Input Determine from records and report log10(IC50) for CCCCCCCC[C@@H]1NC(=O)[C@H]2CCCCN2CC(=O)[C@H]([C@@H](C)CC)NC(=O)[C@H](Cc2cn(OC)c3ccccc23)NC1=O
## Output 1.79

## Input Determine from records and report log10(IC50) for CCC(=O)CCCCC[C@@H]1NC(=O)[C@H]2CCCCN2CC(=O)[C@H]([C@@H](C)CC)NC(=O)[C@H](Cc2cn(OC)c3ccccc23)NC1=O
## Output 0.00

## Input Determine from records and report log10(IC50) for CC[C@H](C)[C@@H]1NC(=O)[C@H](Cc2cn(OC)c3ccccc23)NC(=O)[C@H](CCCCCSC)NC(=O)[C@H]2CCCCN2CC1=O
## Output 2.51

## Input Determine from records and report log10(IC50) for CC[C@H](C)[C@@H]1NC(=O)[C@H](Cc2cn(OC)c3ccccc23)NC(=O)[C@H](CCCCSC(C)=O)NC(=O)[C@H]2CCCCN2CC1=O
## Output 2.04

## Input Determine from records and report log10(IC50) for C=C(CC)CCCCC[C@@H]1NC(=O)[C@H]2CCCCN2CC(=O)[C@H]([C@@H](C)CC)NC(=O)[C@H](Cc2cn(OC)c3ccccc23)NC1=O
## Output 3.16
